From: the supplement of paper PMC10065799

TARGET: FGFR3 (UniProt P22607)
Sequence (P22607 whole entry, looked up): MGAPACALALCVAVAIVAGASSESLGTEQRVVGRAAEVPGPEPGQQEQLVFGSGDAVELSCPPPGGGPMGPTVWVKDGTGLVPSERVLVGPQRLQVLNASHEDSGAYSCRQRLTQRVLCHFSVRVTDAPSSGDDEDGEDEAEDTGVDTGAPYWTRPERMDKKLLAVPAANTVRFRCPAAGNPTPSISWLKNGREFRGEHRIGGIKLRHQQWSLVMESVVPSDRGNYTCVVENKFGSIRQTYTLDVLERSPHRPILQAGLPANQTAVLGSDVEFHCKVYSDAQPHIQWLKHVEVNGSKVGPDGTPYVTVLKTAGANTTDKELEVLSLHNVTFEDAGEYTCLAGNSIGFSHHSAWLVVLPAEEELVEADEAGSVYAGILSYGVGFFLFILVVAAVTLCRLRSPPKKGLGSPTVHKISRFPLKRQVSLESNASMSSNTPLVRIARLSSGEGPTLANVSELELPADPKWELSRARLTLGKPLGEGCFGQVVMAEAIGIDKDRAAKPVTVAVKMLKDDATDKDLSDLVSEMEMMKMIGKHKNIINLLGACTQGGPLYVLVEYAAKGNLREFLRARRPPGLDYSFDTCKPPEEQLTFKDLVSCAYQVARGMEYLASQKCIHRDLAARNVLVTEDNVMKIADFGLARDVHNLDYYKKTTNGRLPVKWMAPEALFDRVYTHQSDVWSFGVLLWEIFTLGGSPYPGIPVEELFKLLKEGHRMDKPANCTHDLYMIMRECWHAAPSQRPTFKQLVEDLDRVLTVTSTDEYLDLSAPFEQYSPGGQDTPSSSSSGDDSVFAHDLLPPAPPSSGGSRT
ASSAY_NOTES: phosphorylation enrichment, bacterial display (enrichment ratio); higher = better substrate or ligand; peptides without Tyr show the background;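 also: 11-residue human phosphosite peptides and single-mutation variants displayed on the E. coli surface, counted by deep sequencing, each peptide's frequency after selection divided by its frequency in the unselected input library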;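 also: frequency after pTyr selection over input frequency; kinase dosed for 20-30% of maximal phosphorylation in three min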

MONOMER_SEQUENCE: HVKHNYECLVF [XRCC5_Y416_I412V_YF]
phosphorylation enrichment: 0.928

MONOMER_SEQUENCE: LVTAWYIGFLC [KCNQ2_Y237]
phosphorylation enrichment: 1.3

MONOMER_SEQUENCE: QEIATYPRLLE [KRT14_Y415_R416P]
phosphorylation enrichment: 0.869

MONOMER_SEQUENCE: SAEKAYHEQLS [TUBA1A_Y282]
phosphorylation enrichment: 0.572

MONOMER_SEQUENCE: FRKNTYNVKST [SYNE2_Y575_I574T_YF]
phosphorylation enrichment: 0.366

MONOMER_SEQUENCE: SKKSTYQALLD [GANC_Y43]
phosphorylation enrichment: 0.405

MONOMER_SEQUENCE: AIMSFYAALID [RYR1_Y2426]
phosphorylation enrichment: 0.988

MONOMER_SEQUENCE: IMVFVYSRVFQ [ADRB2_Y219]
phosphorylation enrichment: 0.786

MONOMER_SEQUENCE: RLLVVYTWTQR [HBB_Y36_P37T]
phosphorylation enrichment: 0.941

MONOMER_SEQUENCE: NMSRIYSTTKV [ACE_Y151_A154T]
phosphorylation enrichment: 0.36

MONOMER_SEQUENCE: ENGPFYASFPP [GDAP2_Y488_T489A_YF]
phosphorylation enrichment: 2.07

MONOMER_SEQUENCE: FRAVKYLQMVG [AVPR2_Y117_C112Y_YF]
phosphorylation enrichment: 0.518

MONOMER_SEQUENCE: WRPFGYPHRRR [BCS1L_Y181_R183H]
phosphorylation enrichment: 0.554

MONOMER_SEQUENCE: VMAALYGRLFE [BTD_Y536_T532M_YF]
phosphorylation enrichment: 0.752

MONOMER_SEQUENCE: SSTASYFEAPG [RFX2_Y108]
phosphorylation enrichment: 3.47

MONOMER_SEQUENCE: FSKTQYNQVPR [CXADR_Y318_S323R_YF]
phosphorylation enrichment: 0.447

MONOMER_SEQUENCE: SVTWTYSPALN [TP53_Y126_C124W]
phosphorylation enrichment: 0.862

MONOMER_SEQUENCE: TFQFKYPEGSS [TGM4_Y440_E437Q_YF]
phosphorylation enrichment: 0.722

MONOMER_SEQUENCE: EFISEFCGEII [EZH2_Y641_Y641F]
phosphorylation enrichment: 0.885

MONOMER_SEQUENCE: IFGASYVPFAA [RBM47_Y541_YF]
phosphorylation enrichment: 0.636

MONOMER_SEQUENCE: SLALFYRKVFH [RBL1_Y792_YF]
phosphorylation enrichment: 0.784

MONOMER_SEQUENCE: CTTIHFNFMCN [TP53_Y234_Y234F_YF]
phosphorylation enrichment: 0.83

MONOMER_SEQUENCE: ARSHIYTLASC [MEFV_Y741_F743L]
phosphorylation enrichment: 0.68

MONOMER_SEQUENCE: RRESPYGGGGG [FUS_Y526_R524S]
phosphorylation enrichment: 0.414

MONOMER_SEQUENCE: YHRQLYHKCTH [F12_Y58]
phosphorylation enrichment: 0.606

MONOMER_SEQUENCE: ANAFIYDVQLP [L1CAM_Y420_V421D_YF]
phosphorylation enrichment: 0.627

MONOMER_SEQUENCE: PEFINYHQHNS [BTK_Y361_L358F]
phosphorylation enrichment: 0.947

MONOMER_SEQUENCE: SHISGYATLRR [RAPH1_Y1226]
phosphorylation enrichment: 0.562

MONOMER_SEQUENCE: VHSGTYQVTVC [MYBPC3_Y1043_R1048C]
phosphorylation enrichment: 0.93
